So I've got a bunch of compounds here, and I need their inhibition at 0.1 µM values.
- measured.target: Lp-PLA2 in rabbit serum (Oryctolagus cuniculus)
- Construct: from tissue; host or cells: rabbit serum
- Sequence (G1SE06 22-423): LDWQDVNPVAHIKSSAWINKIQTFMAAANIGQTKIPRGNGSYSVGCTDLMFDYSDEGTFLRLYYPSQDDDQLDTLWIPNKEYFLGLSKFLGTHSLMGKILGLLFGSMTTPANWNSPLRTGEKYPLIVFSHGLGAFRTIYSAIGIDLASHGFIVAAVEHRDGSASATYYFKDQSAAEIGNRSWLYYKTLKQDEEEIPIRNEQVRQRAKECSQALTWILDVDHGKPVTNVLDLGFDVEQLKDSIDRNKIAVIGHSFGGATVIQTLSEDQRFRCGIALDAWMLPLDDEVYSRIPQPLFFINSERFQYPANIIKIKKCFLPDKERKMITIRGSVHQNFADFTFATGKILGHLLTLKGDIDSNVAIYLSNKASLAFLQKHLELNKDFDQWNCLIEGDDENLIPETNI
- assay.explanation: In vitro inhibitory activity towards the enzyme Lp-PLA2 in rabbit serum, [3H]PAF substrate
- Format: biochemical
- test.settings: 100 nM; rabbit serum; read-out: inhibition, %
Provide a numeric answer, followed by its unit.

Endpoint output: inhibition at 0.1 µM of `C[N+](C)(Cc1ccc(F)cc1)Cc1nnc(Cn2c(SCc3ccc(F)cc3)nc(=O)c3c2CCC3)n1Cc1ccc(-c2ccc(C(F)(F)F)cc2)cc1` . Value?
97%

Again, but for `CN(C)CCNCc1nnc(Cn2c(SCc3ccc(F)cc3)nc(=O)c3c2CCC3)n1Cc1ccc(-c2ccc(C(F)(F)F)cc2)cc1`
98%

Now give it for `CN1CCN(Cc2nnc(Cn3c(SCc4ccc(F)cc4)nc(=O)c4c3CCC4)n2Cc2ccc(-c3ccc(C(F)(F)F)cc3)cc2)CC1` too.
68%

Would you mind doing `CCN(CC)Cc1cnc(Cn2c(SCc3ccc(F)cc3)nc(=O)c3c2CCC3)n1Cc1ccc(-c2ccc(C(F)(F)F)cc2)cc1` as well?
88.3%

Same question, `O=c1nc(SCc2ccc(F)cc2)n(Cc2nnc(CO)n2Cc2ccc(-c3ccc(C(F)(F)F)cc3)cc2)c2c1CCC2` this time
73%

And then `C=C(OC(C)=O)c1nnc(Cn2c(SCc3ccc(F)cc3)nc(=O)c3c2CCC3)n1Cc1ccc(-c2ccc(C(F)(F)F)cc2)cc1` , what is it?
93%

---

Would you mind telling me the reported inhibition at 0.01 µM of each entry?
- measured.target: Lp-PLA2 in human serum (Homo sapiens, UniProt Q13093)
- Construct: from tissue
- Sequence (Q13093 22-441): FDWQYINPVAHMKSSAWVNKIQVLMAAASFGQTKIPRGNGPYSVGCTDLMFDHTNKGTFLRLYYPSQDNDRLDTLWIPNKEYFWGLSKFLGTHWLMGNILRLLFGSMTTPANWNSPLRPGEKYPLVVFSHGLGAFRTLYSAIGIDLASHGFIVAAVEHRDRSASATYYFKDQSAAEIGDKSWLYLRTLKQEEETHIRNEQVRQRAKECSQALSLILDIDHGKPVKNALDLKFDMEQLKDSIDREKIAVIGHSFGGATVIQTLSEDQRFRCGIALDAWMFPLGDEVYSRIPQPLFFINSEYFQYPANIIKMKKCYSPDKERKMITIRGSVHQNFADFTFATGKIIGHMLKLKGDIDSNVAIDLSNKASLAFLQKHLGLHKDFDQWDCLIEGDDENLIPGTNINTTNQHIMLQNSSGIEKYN
- assay.explanation: In vitro inhibitory activity towards the enzyme Lp-PLA2 in human serum, [3H]PAF substrate
- Type: biochemical
- test.settings: 10 nM; human serum; read-out: inhibition, %
- Experimental: The activities of compounds were measured using [^3H] labeled platelet activating factor ([^3H]PAF, Perkinelmer, Lot NET910) as the substrate. The reaction was carried out in a system containing 50 mmol/l HEPES and 150 mmol/l NaCl (pH 7.4) in a total volume of 200 μl. First, 10 μL human plasma and 10 μl DMSO solution of the test compound were added to the system and preincubated for 10 min at 37° C. […] A 100 μl portion of the supernatant was then collected for radioactivity intensity measurement.
Give just the numeric value; % need not be written.

Which measured inhibition at 0.01 µM belongs to `O=c1nc(SCc2ccc(F)cc2)n(Cc2ncc(CN3CCCC3)n2Cc2ccc(-c3ccc(C(F)(F)F)cc3)cc2)c2c1CCC2` , tested on Lp-PLA2 in human serum (Homo sapiens, UniProt Q13093)?
67

What about this compound? `COC(=O)C(C)(C)N1CCN(Cc2nnc(Cn3c(SCc4ccc(F)cc4)nc(=O)c4c3CCC4)n2Cc2ccc(-c3ccc(C(F)(F)F)cc3)cc2)CC1`
59

Continue with CC(O)c1nnc(Cn2c(SCc3ccc(F)cc3)nc(=O)c3c2CCC3)n1Cc1ccc(-c2ccc(C(F)(F)F)cc2)cc1 (centres unmarked)
89

And what about the compound `CCN(CC)Cc1cnc(Cn2c(SCc3ccc(F)cc3)nc(=O)c3c2CCC3)n1Cc1ccc(-c2ccc(C(F)(F)F)cc2)cc1` ?
75

Repeat with `CN(Cc1ccc(F)cc1)Cc1cnc(Cn2c(SCc3ccc(F)cc3)nc(=O)c3c2CCC3)n1Cc1ccc(-c2ccc(C(F)(F)F)cc2)cc1`
69

Try the compound `O=C1NCCN1CCNCc1nnc(Cn2c(SCc3ccc(F)cc3)nc(=O)c3c2CCC3)n1Cc1ccc(-c2ccc(C(F)(F)F)cc2)cc1`
77

Again, but for `CN(C)CCN(C)Cc1onc(Cn2c(SCc3ccc(F)cc3)nc(=O)c3c2CCC3)c1Cc1ccc(-c2ccc(C(F)(F)F)cc2)cc1`
98

Also need CC(NCCN(C)C)c1nnc(Cn2c(SCc3ccc(F)cc3)nc(=O)c3c2CCC3)n1Cc1ccc(-c2ccc(C(F)(F)F)cc2)cc1 (centres unmarked) , thanks.
90

Consider next the compound `O=c1nc(SCc2ccc(F)cc2)n(Cc2ncc(C[N+]3(Cc4ccc(F)cc4)CCCC3)n2Cc2ccc(-c3ccc(C(F)(F)F)cc3)cc2)c2c1CCC2` in the same way.
97

Also check `CN1CCN(Cc2nnc(Cn3c(SCc4ccc(F)cc4)nc(=O)c4c3CCC4)n2Cc2ccc(-c3ccc(C(F)(F)F)cc3)cc2)CC1`
70

// query: `CN(Cc1ccc(F)cc1)Cc1nnc(Cn2c(SCc3ccc(F)cc3)nc(=O)c3c2CCC3)n1Cc1ccc(-c2ccc(C(F)(F)F)cc2)cc1`
93

Query `Cc1nnc(Cn2c(SCc3ccc(F)cc3)nc(=O)c3c2CCC3)n1Cc1ccc(-c2ccc(C(F)(F)F)cc2)cc1` next
73

Entry to check: `CCN(CC)CCOCc1nnc(Cn2c(SCc3ccc(F)cc3)nc(=O)c3c2CCC3)n1Cc1ccc(-c2ccc(C(F)(F)F)cc2)cc1`
76

Consider next the compound `O=c1nc(SCc2ccc(F)cc2)n(Cc2nnc(COCCO)n2Cc2ccc(-c3ccc(C(F)(F)F)cc3)cc2)c2c1CCC2` in the same way.
76

---

Consider the following compounds; for each one, report its inhibition at 0.01 µM.
- measured.target: Lp-PLA2 in human serum (Homo sapiens, UniProt Q13093)
- Construct: from tissue
- assay.explanation: In vitro inhibitory activity towards the enzyme Lp-PLA2 in human serum, [3H]PAF substrate
- Format: biochemical
- test.settings: 10 nM; human serum; read-out: inhibition, %
Give just the number in %; leave the unit off.

I would be grateful if you could share the reported inhibition at 0.01 µM for CCN(CC)CCNC(C)c1nnc(Cn2c(SCc3ccc(F)cc3)nc(=O)c3c2CCC3)n1Cc1ccc(-c2ccc(C(F)(F)F)cc2)cc1 (stereo not drawn) .
92

What do we get for `CC(C)(C)N/N=C/c1nnc(Cn2c(SCc3ccc(F)cc3)nc(=O)c3c2CCC3)n1Cc1ccc(-c2ccc(C(F)(F)F)cc2)cc1` ?
58

Similarly, `C[N+](C)(Cc1ccc(F)cc1)Cc1cnc(Cn2c(SCc3ccc(F)cc3)nc(=O)c3c2CCC3)n1Cc1ccc(-c2ccc(C(F)(F)F)cc2)cc1` ?
93

---

- measured.target: Lp-PLA2 in rabbit serum (Oryctolagus cuniculus, UniProt G1SE06)
- Construct: from tissue; host or cells: rabbit serum
- Sequence (G1SE06 22-423): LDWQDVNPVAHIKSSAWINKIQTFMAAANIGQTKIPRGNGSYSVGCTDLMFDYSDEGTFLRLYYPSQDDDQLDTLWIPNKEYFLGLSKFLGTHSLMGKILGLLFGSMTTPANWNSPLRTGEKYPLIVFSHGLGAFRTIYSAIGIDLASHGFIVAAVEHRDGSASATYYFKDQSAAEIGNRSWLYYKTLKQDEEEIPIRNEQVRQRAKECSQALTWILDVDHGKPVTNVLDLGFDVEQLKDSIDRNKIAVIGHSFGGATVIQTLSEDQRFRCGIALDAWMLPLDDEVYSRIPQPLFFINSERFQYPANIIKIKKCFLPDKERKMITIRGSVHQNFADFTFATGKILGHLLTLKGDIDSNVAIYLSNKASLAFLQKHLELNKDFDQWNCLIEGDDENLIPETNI
- assay.explanation: In vitro inhibitory activity towards the enzyme Lp-PLA2 in rabbit serum, [3H]PAF substrate
- Assay type: biochemical
- test.settings: 1 μM; rabbit serum
Parameter threshold = 60%. Response is met when inhibition at 1 µM meets or exceeds it, else not met.

Threshold query (inhibition at 1 µM >= 60%) on O=c1nc(SCc2ccc(F)cc2)n(CC2=NOC(c3ccc(-c4ccc(C(F)(F)F)cc4)cc3)N2)c2c1CCC2 (stereo not shown)
not met

# repeat for CCCC/C=C/N1C(Cn2c(SCc3ccc(F)cc3)nc(=O)c3c2CCC3)=NOC1CCCCCCC (stereo not shown)
not met

Likewise for CCCCCCCC1NC(Cn2c(SCc3ccc(F)cc3)nc(=O)c3c2CCC3)=NO1 (stereo not shown) ?
not met

Another molecule: `Cn1cc(Cc2cn(Cc3nccn3Cc3ccc(-c4ccc(C(F)(F)F)cc4)cc3)c(SCc3ccc(F)cc3)nc2=O)cn1`
met

Thanks! And `Cc1cnc(Cn2cc(Cc3cnn(C)c3)c(=O)nc2SCc2ccc(F)cc2)n1Cc1ccc(-c2ccc(C(F)(F)F)cc2)cc1` ?
met

What do we get for `CCCCCCCCCCCCn1ccnc1Cn1c(SCc2ccc(F)cc2)nc(=O)c2c1CCC2` ?
not met

Proceed to `CCN(CC)Cc1cnc(Cn2c(SCc3ccc(F)cc3)nc(=O)c3c2CCC3)n1Cc1ccc(-c2ccc(C(F)(F)F)cc2)cc1`
met
